Record form. Attribute: activation at 2 µM. Fill in for each entry.
- Test system: acutely dissociated and purified rat OPCs
- experimentNotes: Acute OL differentiation assay (MBP expression/cell, immunofluorescent image quantification)
- Assay type: cell-based
- condition: Rattus norvegicus, test compound at 2 uM; MBP expression relative to quetiapine; NCC library screen, sheet "All OLga data"; read-out: 2 uM (% Quet)
One number for each entry, in %.

Look at each compound and report its activation at 2 µM.
1. Cc1cn([C@H]2C=C[C@@H](CO)O2)c(=O)[nH]c1=O
2. Cc1onc(-c2c(Cl)cccc2Cl)c1C(=O)N[C@@H]1C(=O)N2[C@@H]1SC(C)(C)[C@@H]2C(=O)O
3. C[C@H]1C[C@@H]2[C@H]([C@@H](O)C[C@@]3(C)[C@H]2CC[C@]3(O)C(=O)CO)[C@@]2(C)C=CC(=O)C=C12

-21.6
-0.7
-2.6

Look at each compound and report its activation at 2 µM.
1. COC1=CC(=O)C[C@@H](C)[C@]12Oc1c(Cl)c(OC)cc(OC)c1C2=O
2. CC[C@@H](CO)NCCN[C@@H](CC)CO
3. NS(=O)(=O)Cc1noc2ccccc12 [Zonisamide]
4. CN(C)CCCC1(c2ccc(F)cc2)OCc2cc(C#N)ccc21 (stereo not shown) [Nitalapram, reference compound]
5. CN1[C@@H]2CC[C@H]1C[C@@H](OC(c1ccccc1)c1ccccc1)C2
6. N[C@@H]1CON=C1O

-7.2
2.2
5.9
30.4
102
-13.8

----------
- Test system: expanded OPCs
- experimentNotes: cells
- condition: alamarBlue viability of expanded OPCs, compound at 0.1 µM, relative to DMSO control
Record form. Attribute: 0.1 µM (% DMSO). Fill in for each entry.
Form field: result (number plus unit)

Some compounds with known 0.1 µM (% DMSO) results, for comparison:
1) CC(C)NCC(O)c1ccc(O)c(O)c1 (centres unmarked) [Isoproterenol] :: 95.1 % DMSO
2) CC1=C(/C=C/C(C)=C/C=C/C(C)=C\C(=O)O)C(C)(C)CCC1 [Isotretinoin] :: 104.5 % DMSO

Look at each compound and report its 0.1 µM (% DMSO).
1. c1ccc2c(c1)CCCC2C1=NCCN1 (centres unmarked) [Tyzine]
2. NS(=O)(=O)Cc1noc2ccccc12 [Zonisamide]

181.2 % DMSO
89.3 % DMSO

Look at each compound and report its 0.1 µM (% DMSO).
1. O=C(O)c1cc(-c2ccc(F)cc2F)ccc1O [Diflunisal]
2. Brc1c(NC2=NCCN2)ccc2nccnc12 [Brimonidine]
3. CCOc1ccc2ccccc2c1C(=O)N[C@@H]1C(=O)N2[C@@H]1SC(C)(C)[C@@H]2C(=O)O [Nafcillin]
4. Cc1cn([C@H]2C[C@H](N=[N+]=[N-])[C@@H](CO)O2)c(=O)[nH]c1=O [Zidovudine]

94.0 % DMSO
91.9 % DMSO
104.4 % DMSO
89.6 % DMSO

----------
- System: expanded OPCs
- experimentNotes: cells
- condition: Rattus norvegicus, 72 h, read-out: 10 µM (% DMSO), alamarBlue viability, NCC library compound at 10 µM, sheet "All Tox data"
experimentalReadout: viability at 10 µM (%)
Give bare numbers, in %.

1. CCOC(=O)OC(C)OC1=C(C(=O)Nc2ccccn2)N(C)S(=O)(=O)c2ccccc21 (centres unmarked) [Ampiroxicam] :: 90.8
2. Cc1cccc(C)c1NC(=O)C1CCCCN1C (centres unmarked) [Mepivacaine] :: 79.7
3. Cc1nnc(SCC2=C(C(=O)O)N3C(=O)[C@@H](NC(=O)Cn4cnnn4)[C@H]3SC2)s1 [Cefazolin] :: 96.9
4. Nc1nc2c(ncn2CCC(CO)CO)c(=O)[nH]1 [Penciclovir] :: 90.7

Now consider the entry below.
I have this compound here, CCC1=C(C)CN(C(=O)NCCc2ccc(S(=O)(=O)NC(=O)N[C@H]3CC[C@H](C)CC3)cc2)C1=O [Glimepiride] , and I need its recorded viability at 10 µM.
83.6

----------
- Tested on: expanded OPCs
- experimentNotes: cells
- condition: alamarBlue viability of expanded OPCs, compound at 10 µM, relative to DMSO control
experimentalReadout: 10 µM (% DMSO)
Give bare numbers, in % DMSO.

Some compounds with known 10 µM (% DMSO) results, for comparison:
1) CCOC(=O)CCC(=O)O[C@H]1[C@H](O[C@@H]2[C@@H](C)[C@H](O[C@H]3C[C@@](C)(OC)[C@@H](O)[C@H](C)O3)[C@@H](C)C(=O)O[C@H](CC)[C@@](C)(O)[C@H](O)[C@@H](C)C(=O)[C@H](C)C[C@@]2(C)O)O[C@H](C)C[C@@H]1N(C)C [Erythromycin Ethylsuccinate] :: 75.9
2) O=C(N[C@H](CO)[C@H](O)c1ccc([N+](=O)[O-])cc1)C(Cl)Cl [Chloramphenicol] :: 90.9

Now consider the entry below.
I have this compound here, Cc1ccc(N(CC2=NCCN2)c2cccc(O)c2)cc1 [Phentolamine] , and I need its recorded 10 µM (% DMSO).
62.0

----------
Record form. Attribute: viability at 10 µM. Fill in for each entry.
- Tested on: expanded OPCs
- experimentNotes: cells
- condition: Rattus norvegicus, 72 h, read-out: 10 µM (% DMSO), alamarBlue viability, NCC library compound at 10 µM, sheet "All Tox data"
Give bare numbers, in %.

Some compounds with known viability at 10 µM results, for comparison:
1. COc1cc2c(cc1OC)[C@@]13CCN4CC5=CCO[C@H]6CC(=O)N2[C@H]1[C@H]6[C@H]5C[C@H]43 [Brucine] :: 46.6
2. CNS(=O)(=O)Cc1ccc2[nH]cc(CCN(C)C)c2c1 [Sumatriptan] :: 92.1
3. NC(=O)OCC(COC(N)=O)c1ccccc1 [Felbamate] :: 91.9
4. C#C[C@]1(O)CC[C@H]2[C@@H]3CCC4=CC(=O)CC[C@@H]4[C@H]3CC[C@@]21C [Norethindrone] :: 80.6
5. CN1C(=O)COc2c(C(=O)NC3CN4CCC3CC4)cc(Cl)cc21 (stereo not drawn) [Azasetron] :: 76.8
6. CCN(CC)CCNC(=O)c1ccc(N)cc1 [Procainamide] :: 120
7. C#C[C@]1(O)CC[C@H]2[C@@H]3CCc4cc(OC)ccc4[C@H]3CC[C@@]21C [Mestranol] :: 114
8. N[C@@H](C(=O)N[C@@H]1C(=O)N2C(C(=O)O)=C(Cl)CS[C@H]12)c1ccccc1 [Cefaclor] :: 106

Now consider the entry below.
I have this compound here, CN1C2CCCC1CC(NC(=O)c1nn(C)c3ccccc13)C2 (stereo not drawn) [Granisetron] , and I need its recorded viability at 10 µM.
72.4

----------
- System: acutely dissociated and purified rat OPCs
- experimentNotes: Acute OL differentiation assay (MBP expression/cell, immunofluorescent image quantification)
- Format: cell-based
- condition: Rattus norvegicus, test compound at 2 uM; MBP expression relative to quetiapine; NCC library screen, sheet "All OLga data"; read-out: 2 uM (% Quet)
- Text: In order to identify compounds with the potential to promote OL differentiation in vivo and thereby enhance remyelination, we first wanted to establish an in vitro assay system that would closely mimic conditions in vivo. […] To quantify the extent of OL differentiation occurring in treatment conditions, we measured the overall amount of MBP expression/cell (see “Methods” section). Figure 2a depicts the mask created over MBP staining under which the MBP expression was quantified. […]
Record form. Attribute: activation at 2 µM. Fill in for each entry.

1. Cc1cnc(NC(=O)C2=C(O)c3ccccc3S(=O)(=O)N2C)s1 :: -8.5%

Look at each compound and report its activation at 2 µM.
1. COc1c(N2CCNC(C)C2)c(F)cc2c(=O)c(C(=O)O)cn(C3CC3)c12 (stereo not shown)
2. C/C(=C\C(=O)OCCCCCCCCC(=O)O)C[C@@H]1OC[C@H](C[C@@H]2O[C@H]2[C@@H](C)[C@H](C)O)[C@@H](O)[C@H]1O
3. CCC1(c2ccc(N)cc2)CCC(=O)NC1=O (stereo not shown) [Aminoglutethimide]

1. 34.6%
2. -2.9%
3. -11%

----------
- Test system: expanded OPCs
- experimentNotes: cells
Entries whose 1 µM (% DMSO) is below 90 % DMSO take true; entries at or above 90 % DMSO take false.

Example entries and their recorded answers appear below.
1. CNCC[C@H](Oc1cccc2ccccc12)c1cccs1 :: true
2. Cl.Cl.O=C(O)COCCN1CCN(C(c2ccccc2)c2ccc(Cl)cc2)CC1 (centres unmarked) :: false

Please turn your attention to the following entry.
Say whether its 1 µM (% DMSO) is strictly beneath 90 % DMSO. Entry: CN1CCN2c3ncccc3Cc3ccccc3C2C1 (centres unmarked)
true

----------
- Test system: acutely dissociated and purified rat OPCs
- experimentNotes: Acute OL differentiation assay (MBP expression/cell, immunofluorescent image quantification)
- Format: cell-based
- condition: Rattus norvegicus, test compound at 0.4 uM; MBP expression relative to quetiapine; NCC library screen, sheet "All OLga data"; read-out: 0.4 uM (% Quet)
experimentalReadout: activation at 0.4 µM (%)
Numbers only, in %.

Some compounds with known activation at 0.4 µM results, for comparison:
1) CNCCCN1c2ccccc2CCc2ccccc21 [Desipramine] :: -5.3
2) OC(c1cc(C(F)(F)F)nc2c(C(F)(F)F)cccc12)C1CCCCN1 (stereo not drawn) [Mefloquine] :: -134

Now consider the entry below.
I have this compound here, CO[C@H]1/C=C/O[C@@]2(C)Oc3c(C)c(O)c4c(c3C2=O)C2=NC3(CCN(CC(C)C)CC3)NC2=C(NC(=O)/C(C)=C\C=C\[C@H](C)[C@H](O)[C@@H](C)[C@@H](O)[C@@H](C)[C@H](OC(C)=O)[C@@H]1C)C4=O [Rifabutin] , and I need its recorded activation at 0.4 µM.
-0.04
